biological target: Human serum albumin (HSA) glycation by fructose (AGE-HSA) (Homo sapiens, UniProt P02768); construct: purchased Sigma Aldrich, St. Louis, Mo., USA; experiment: In-vitro antiglycation activity against HSA glycation (fluorescence-based antiglycation assay); format: biochemical; details: read-out: Antiglycation Activity % Inhibition
Sequence (P02768 25-609): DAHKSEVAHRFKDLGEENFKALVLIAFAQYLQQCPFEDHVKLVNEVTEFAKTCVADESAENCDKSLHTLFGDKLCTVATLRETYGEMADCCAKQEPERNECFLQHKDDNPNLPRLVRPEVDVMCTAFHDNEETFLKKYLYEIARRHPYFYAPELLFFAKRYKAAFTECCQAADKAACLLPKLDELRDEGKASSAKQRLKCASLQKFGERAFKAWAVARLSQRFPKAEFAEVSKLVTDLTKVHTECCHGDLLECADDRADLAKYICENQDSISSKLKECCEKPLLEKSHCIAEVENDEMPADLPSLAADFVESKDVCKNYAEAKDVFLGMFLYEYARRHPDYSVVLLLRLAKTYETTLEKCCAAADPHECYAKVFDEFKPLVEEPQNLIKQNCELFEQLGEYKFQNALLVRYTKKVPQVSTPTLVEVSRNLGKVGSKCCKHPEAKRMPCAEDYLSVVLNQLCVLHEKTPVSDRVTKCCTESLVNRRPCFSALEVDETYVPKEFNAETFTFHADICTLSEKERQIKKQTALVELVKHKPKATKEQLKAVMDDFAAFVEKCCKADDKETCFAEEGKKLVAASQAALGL
Please enter 1 (yes) where inhibition at 1000 µM is greater than or equal to 70%, and 0 (no) where it is lower.

Worked examples follow.
O=C(O)c1ccccc1Nc1cc([N+](=O)[O-])ccc1Cl; 1 (yes)
O=C(O)c1ccccc1Nc1ccc(Cl)cc1; 0 (no)

--- query ---
Q) Please check the record O=C(O)c1ccccc1Nc1ccc(Cl)c(Cl)c1 and state if its inhibition at 1000 µM is at or above 70%.
A) 0 (no)

The measured values listed here are drawn from patent US9381182B2.
